system: MRCKB; construct: gene CDC42BPB; settings: concentration: 1 μM, replicates: in singlicate; n = 1;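 note: KINOMEscan kinase panel screen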
Measurement type: %Inh (%)
// return numeric value only (unit: %, not printed)

Value of %Inh reported for the compound CCC(=O)c1c(-c2ccccc2)c2cc(Cl)ccc2c(=O)n1Cc1cc(S(C)(=O)=O)n(CC(F)F)n1 is 0

Value of %Inh reported for the compound COc1ccc(CNC(=O)NC2CCN(c3ccnc(Nc4ccc(F)cc4)n3)C2)cc1 (stereo not drawn) is 12

* * *

tested on: CSNK1G1; details: concentration: 1 μM, replicates: in singlicate; n = 1
Measurement type: %Inh
A complete answer gives the number followed by the unit.

Observe how each entry below is paired with its result.
Value of %Inh reported for the molecule O=C(Nc1ccc2c(c1)OCO2)NC1CCN(c2ccnc(NCc3ccc(F)cc3)n2)CC1 [GSK1379859] is 0%

Value of %Inh reported for the molecule FC(F)(F)c1ccc(-c2ncn(CCCN3CCOCC3)c2-c2ccncc2)cc1 [SB-217780] is 0%

Further cases:
Value of %Inh reported for the molecule CCn1c(-c2ccoc2)nc2cnccc21 [SB-733887] is 0%

Value of %Inh reported for the molecule COc1cccc(C2=C(Nc3cccc(C(=O)O)c3)C(=O)NC2=O)c1 [SB-390770] is 2%

Value of %Inh reported for the molecule Nc1n[nH]c2ncc(-c3ccccc3)cc12 [SB-517081] is 68%

Value of %Inh reported for the molecule Cc1nnc(-c2ccc(C)c(-c3ccc(C(=O)O)cc3)c2)o1 [GW608005] is 7%

Value of %Inh reported for the molecule Cc1nc(N(C)[C@H]2CN(C(=O)CC#N)CC[C@H]2C)c2cc[nH]c2n1 is 5%

Value of %Inh reported for the molecule COc1ccc(-c2cc3c(C)nc(N)nc3n([C@H]3CC[C@H](O)CC3)c2=O)cn1 is 0%

Value of %Inh reported for the molecule Nc1nc(-c2ccccc2F)c(-c2ccnc3ccccc23)s1 [GW560459] is 13%
